Measured EC50 of individual entries
System: U937 cells
measurement description: EC50 of necroptosis inhibition in U937 cells (TSZ-induced, CellTiter-Glo)
Format: cell-based
cond: Homo sapiens, U-937; TSZ (hTNF-α, SM-164, Z-VAD-FMK) 20 hours; 10 concentration points; read-out: EC50 intervals of necroptosis inhibition in U937 cells

Requested read-out EC50, target or system U937 cells, entry C[C@@H](NC(=O)C(=O)N[C@H]1COc2ccc(C#CCN3CCN(CCOCCOCCOCCC(=O)Nc4cccc5c4CN(C4CCC(=O)NC4=O)C5=O)CC3)cc2N(C)C1=O)c1ccccc1 (mixture of isomers)
100 to 500 nM

Now the compound Cc1ncsc1-c1ccc(CNC(=O)[C@@H]2C[C@@H](O)CN2C(=O)[C@@H](NC(=O)COCCOCCN2CCC(C#Cc3ccc4c(c3)N(C)C(=O)[C@@H](NC(=O)C(=O)NCCc3ccccc3)CO4)CC2)C(C)(C)C)cc1
< 100 nM

Now the compound C[C@H](NC(=O)C(=O)N[C@H]1COc2ccc(C#CCN3CCOCC3)cc2N(C)C1=O)c1ccccc1
< 100 nM

Now the compound CN1C(=O)[C@@H](NC(=O)C(=O)NCCc2ccccc2)COc2ccc(C#CCOc3ccccc3)cc21
< 100 nM

Now the compound CN1C(=O)[C@@H](NC(=O)C(=O)NCCc2ccccc2)COc2ccc(C#CC3CCN(CCOCCOCC(=O)O)CC3)cc21 [Example 54, 2,2,2-trifluoroacetate]
500 to 2000 nM

Now the compound CN1C(=O)[C@@H](NC(=O)C(=O)NCc2cc(F)cc(F)c2)COc2ccccc21
500 to 2000 nM

====

System: U937 cells
measurement description: EC50 of necroptosis inhibition in U937 cells (TSZ-induced, CellTiter-Glo)
Format: cell-based
cond: Homo sapiens, U-937; TSZ (hTNF-α, SM-164, Z-VAD-FMK) 20 hours; 10 concentration points; read-out: EC50 intervals of necroptosis inhibition in U937 cells
Measured EC50 of individual entries

See these solved cases before continuing.
{"molecule": "C[C@@H](NC(=O)C(=O)N[C@H]1COc2ccc(C#CCN3CCC(O)C3)cc2N(C)C1=O)c1ccccc1 (mixture of isomers)", "readout label": "EC50", "measured value": "< 100 nM"}
{"molecule": "CN1C(=O)C(NC(=O)C(=O)NCCc2ccccc2)CCc2ccc(C#CC3CCNCC3)cc21 (stereo not shown)", "readout label": "EC50", "measured value": "< 100 nM"}
{"molecule": "CN1C(=O)C(NC(=O)C(=O)NCCc2ccccc2)CCc2cc(C#CC3CC3)ccc21 (stereo not shown)", "readout label": "EC50", "measured value": "500 to 2000 nM"}

Now look at this one.
Param item = C[C@H](Cc1ccccc1)NC(=O)C(=O)N[C@H]1COc2ccc(C#CCCO)cc2N(C)C1=O ; retrieve measured EC50.
100 to 500 nM

====

tested on: RIPK1 kinase (Homo sapiens, UniProt Q13546)
Construct: purchased Promega VA7593
Sequence (Q13546 whole entry): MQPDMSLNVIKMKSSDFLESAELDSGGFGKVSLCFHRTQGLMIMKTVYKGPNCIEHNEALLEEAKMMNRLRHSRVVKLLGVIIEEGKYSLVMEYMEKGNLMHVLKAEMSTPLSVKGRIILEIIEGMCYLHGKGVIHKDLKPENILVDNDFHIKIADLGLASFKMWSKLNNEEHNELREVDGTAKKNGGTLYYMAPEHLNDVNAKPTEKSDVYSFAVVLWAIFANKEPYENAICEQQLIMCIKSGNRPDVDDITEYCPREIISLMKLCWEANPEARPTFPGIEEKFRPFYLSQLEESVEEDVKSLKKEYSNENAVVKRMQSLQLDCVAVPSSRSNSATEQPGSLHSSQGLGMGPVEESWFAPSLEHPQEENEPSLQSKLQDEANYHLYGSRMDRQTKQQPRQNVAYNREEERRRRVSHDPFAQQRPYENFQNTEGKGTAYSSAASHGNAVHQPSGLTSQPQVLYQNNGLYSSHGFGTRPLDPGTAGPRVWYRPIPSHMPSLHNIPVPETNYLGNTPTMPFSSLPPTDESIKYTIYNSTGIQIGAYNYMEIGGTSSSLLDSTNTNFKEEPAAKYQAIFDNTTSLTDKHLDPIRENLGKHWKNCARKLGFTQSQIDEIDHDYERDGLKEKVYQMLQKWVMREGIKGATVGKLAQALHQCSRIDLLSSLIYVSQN
measurement description: In vitro RIPK1 kinase activity assay (ADP-Glo), inhibition by compounds at 1 μM
Assay type: biochemical
cond: compound 1 μM; ATP 10 μM; MBP substrate 100 μg/mL; read-out: RIPK1 kinase activity inhibition rate range
readout label: inhibition at 1 µM

See these solved cases before continuing.
{"compound": "C=CC(=O)NCC#Cc1ccc2c(c1)N(C)C(=O)[C@@H](NC(=O)C(=O)NCCc1ccccc1)CO2", "inhibition at 1 µM": "50 to 74%"}
{"compound": "CN1C(=O)C(NC(=O)C(=O)NCc2ccccc2)CCc2ccccc21 (centres unmarked)", "inhibition at 1 µM": "≥ 75%"}
{"compound": "CN1C(=O)[C@@H](NC(=O)C(=O)NCCc2cccc(F)c2)COc2ccc(C#CCN3CCOCC3)cc21", "inhibition at 1 µM": "≥ 75%"}
{"compound": "CN1C(=O)[C@@H](NC(=O)C(=O)NCc2ccccc2)COc2ccc(C#CCN3CCC(O)CC3)cc21", "inhibition at 1 µM": "≥ 75%"}
{"compound": "C[C@@H](NC(=O)C(=O)N[C@H]1COc2ccc(C#CC3CCNCC3)cc2N(C)C1=O)c1ccccc1", "inhibition at 1 µM": "25 to 49%"}

Param item = CN1C(=O)[C@@H](NC(=O)C(=O)NCCc2ccccc2)COc2ccc(C#Cc3cccs3)cc21 ; retrieve measured inhibition at 1 µM.
50 to 74%

Now the compound CN1C(=O)[C@@H](NC(=O)C(=O)NCCc2ccccc2)COc2ccc(C#CCN3CCC(O)C3)cc21 (some centres unmarked)
≥ 75%

Now the compound CN1C(=O)[C@@H](NC(=O)C(=O)NCCc2cccc(F)c2)COc2ccc(C#CCN3C(=O)CCC3=O)cc21
≥ 75%

Now the compound CN1C(=O)[C@@H](NC(=O)C(=O)NCCc2cccc(F)c2)COc2ccc(C#CCN3CC[C@@H](O)C3)cc21
≥ 75%

Now the compound CN1C(=O)[C@@H](NC(=O)C(=O)NCc2ccccc2)COc2ccc(C#CCN3CCNC(=O)C3)cc21
50 to 74%

Now the compound CN1C(=O)[C@@H](NC(=O)C(=O)NCc2ccccc2)COc2ccc(C#CCn3ccnc3)cc21
≥ 75%

Now the compound C[C@@H](CNC(=O)C(=O)N[C@H]1COc2ccc(C#CCN3CCOCC3)cc2N(C)C1=O)c1ccccc1
≥ 75%

Now the compound CN1C(=O)[C@@H](NC(=O)C(=O)NCCc2cccc(F)c2)COc2ccc(C#CC3(O)COC3)cc21
≥ 75%

Now the compound C[C@@H](NC(=O)C(=O)N[C@H]1COc2ccc(C#CCN3CCC(O)C3)cc2N(C)C1=O)c1ccccc1 (mixture of isomers)
≥ 75%

Now the compound C[C@@H](NC(=O)C(=O)N[C@H]1COc2ccc(C#CC3CCN(CC#N)CC3)cc2N(C)C1=O)c1ccccc1
≥ 75%

Now the compound CN1C(=O)[C@@H](NC(=O)C(=O)NCCc2ccccc2)COc2ccc(C#CC3COC3)cc21
50 to 74%

Now the compound CN1C(=O)[C@@H](NC(=O)C(=O)NCCc2cccc(F)c2)COc2ccc(C#CC(C)(C)O)cc21
≥ 75%

====

tested on: RIPK1 kinase (Homo sapiens)
Construct: purchased Promega VA7593
measurement description: In vitro RIPK1 kinase activity assay (ADP-Glo), inhibition by compounds at 1 μM
Type: biochemical
cond: compound 1 μM; ATP 10 μM; MBP substrate 100 μg/mL; read-out: RIPK1 kinase activity inhibition rate range
Measured inhibition at 1 µM of individual entries

See these solved cases before continuing.
{"compound": "CN1C(=O)[C@@H](NC(=O)C(=O)NCCc2ccccc2)COc2ccc(C#CC3(O)CCOC3)cc21 (stereo partly drawn)", "inhibition at 1 µM": "≥ 75%"}
{"compound": "CN1C(=O)[C@@H](NC(=O)C(=O)NCCc2ccccc2F)COc2ccccc21", "inhibition at 1 µM": "50 to 74%"}

Now look at this one.
Param item = CN1C(=O)[C@@H](NC(=O)C(=O)NCCc2cccc(F)c2)COc2ccccc21 ; retrieve measured inhibition at 1 µM.
≥ 75%

====

System: U937 cells
measurement description: EC50 of necroptosis inhibition in U937 cells (TSZ-induced, CellTiter-Glo)
Format: cell-based
cond: Homo sapiens, U-937; TSZ (hTNF-α, SM-164, Z-VAD-FMK) 20 hours; 10 concentration points; read-out: EC50 intervals of necroptosis inhibition in U937 cells
Description: The biological activity of RIPK1 inhibitors was further evaluated in the inhibition of necroptosis in U937 cells. U937 cell line was purchased from Huatuo Biotechnology and stored in liquid nitrogen. […] The activity was further evaluated by the cellular ATP level detected by the Promega CellTiter-Glo 2.0 Assay cell viability assay kit (Catalog No.: G9242). The experimental method was briefly described as below. […] The inhibition rate was calculated as Inh %=(1−(no TSZ-TSZ & compound)/(no TSZ-TSZ))×100. […]
readout label: EC50

See these solved cases before continuing.
{"molecule": "CN1C(=O)[C@@H](NC(=O)C(=O)NCCc2ccccc2)COc2ccc(C#Cc3cnc4cccnn34)cc21 [Example 25]", "tested on": "U937 cells", "readout label": "EC50", "measured value": "< 0.1 µM"}
{"molecule": "CN1C(=O)[C@@H](NC(=O)C(=O)NCCc2cccc(F)c2)COc2ccc(C#CCN3C(=O)CCC3=O)cc21 [Example 122]", "tested on": "U937 cells", "readout label": "EC50", "measured value": "< 0.1 µM"}
{"molecule": "C=CCOc1ccc2c(c1)N(C)C(=O)[C@@H](NC(=O)C(=O)NCCc1ccccc1)CO2 [Example 9]", "tested on": "U937 cells", "readout label": "EC50", "measured value": "0.1 to 0.5 µM"}
{"molecule": "CN1CCC(C#Cc2ccc3c(c2)N(C)C(=O)[C@@H](NC(=O)C(=O)NCCc2ccccc2)CO3)CC1 [Example 73]", "tested on": "U937 cells", "readout label": "EC50", "measured value": "< 0.1 µM"}
{"molecule": "CN1CCC(CC#Cc2ccc3c(c2)N(C)C(=O)[C@@H](NC(=O)C(=O)NCCc2ccccc2)CO3)C1=O (mixture of isomers) [Example 82]", "tested on": "U937 cells", "readout label": "EC50", "measured value": "< 0.1 µM"}
{"molecule": "CN1C(=O)[C@@H](NC(=O)C(=O)NCCc2ccccc2)COc2cc(O)ccc21 [Example 5]", "tested on": "U937 cells", "readout label": "EC50", "measured value": "0.1 to 0.5 µM"}

Param item = CN1C(=O)[C@@H](NC(=O)C(=O)NCCc2ccccc2)COc2ccc(C#Cc3cc(F)cc(F)c3)cc21 [Example 27] ; retrieve measured EC50.
< 0.1 µM

Now the molecule CN1C(=O)[C@@H](NC(=O)C(=O)NCCc2ccccc2)COc2ccc(C#CCn3ccnc3)cc21 [Example 72]
< 0.1 µM

Now the molecule CN1C(=O)[C@@H](NC(=O)C(=O)NCCc2ccsc2)COc2ccccc21 [Example 98]
0.1 to 0.5 µM

Now the molecule Cc1cccc(/C=C/c2ccc3c(c2)N(C)C(=O)[C@@H](NC(=O)C(=O)NCCc2ccccc2)CO3)c1 [Example 11]
< 0.1 µM

Now the molecule CN1C(=O)[C@@H](NC(=O)C(=O)NCCc2ccccc2)COc2ccc(C#CC3CCOCC3)cc21 [Example 21]
< 0.1 µM
